Data provenance is paper PMC7840129.

TARGET OF ASSAY: T1, human REV-ERBβ ligand-binding domain (residues 381 to 579) (human, UniProt Q14995 381-579)
T1 construct: cloned into pET46; Used ligand-free (apo) or loaded with heme (a small molecule; 1.05 to 2 molar equivalents); the two states are told apart by the assays; also called REV-ERBβ LBD; LBD; source: E. coli BL21(DE3), purified (IMAC, 3C protease cleavage, size exclusion); 15N-labelled in M9 minimal media for NMR; not shown: 6xHis, N-terminal, cleaved
T1 sequence (looked up): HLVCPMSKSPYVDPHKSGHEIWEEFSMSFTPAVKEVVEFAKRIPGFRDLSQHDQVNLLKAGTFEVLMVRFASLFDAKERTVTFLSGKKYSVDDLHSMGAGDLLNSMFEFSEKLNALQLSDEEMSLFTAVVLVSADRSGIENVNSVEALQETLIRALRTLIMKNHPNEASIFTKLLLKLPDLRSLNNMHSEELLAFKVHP
EXPERIMENTAL DETAILS: ITC; apo LBD (500 μM, syringe) titrated into ID peptide (50 μM, cell); 25°C; 20 mM Hepes pH 7.4, 50 mM KCl, 0.5 mM EDTA, 5 mM TCEP; A + B ↔ AB model in SEDPHAT
CONDITION NOTES: both partners purified
Where no end group is shown, it is not given here.

BINDER | Kd / µM
DPASNLGLEDIIRKALMGSFDDK (not fully specified, source: synthetic peptide, bought: LifeTein) [NCoR ID2 peptide] | 84
RTHRLITLADHICQIITQDFARN (not fully specified, source: synthetic peptide, bought: LifeTein) [NCoR ID1 peptide] | 0.49
